PROPERTY: melting point

Use these answered entries as a reference point.
MOLECULE	melting point
O=C1C=C(Cl)C(=O)c2ccccc21	154 to 156 °C
NC(=O)c1cn(C(CO)CCc2cccc(C(F)(F)F)c2)cn1 (configuration not stated)	103 to 106 °C

Request: Sample CSCC(=O)Nc1cc(SCC(C)C)ccc1[N+](=O)[O-] — what was its melting point?
Result: 73 to 74 °C

Request: Sample Cn1cc(C(=O)O)c(=O)c2cc3cc(F)c(N4CCNC(c5ccccc5)C4)cc3nc21 (racemic) — what was its melting point?
Result: 265 °C

Request: Sample Clc1ccc(OCc2ccccc2)cn1 — what was its melting point?
Result: < 50 °C

Request: Sample Cn1cnc(COc2nn3c(-c4ccc(F)cc4F)nnc3cc2C2(C)CCCCC2)n1 — what was its melting point?
Result: 156 °C

Request: Sample CCOc1c(C(=O)c2ccccc2)cnc2[nH]ncc12 — what was its melting point?
Result: 195 to 197 °C
